target: UniProtKB P07333; experiment: Displacement of kinase tracer 236 from recombinant human His-tagged CSF1R cytoplasmic domain (538 to 910 residues) expressed in baculovirus-infected insect cells measured after 5 hrs by TR-FRET based LanthaScreen assay
Sequence (P07333 whole entry, the tested form may be a part): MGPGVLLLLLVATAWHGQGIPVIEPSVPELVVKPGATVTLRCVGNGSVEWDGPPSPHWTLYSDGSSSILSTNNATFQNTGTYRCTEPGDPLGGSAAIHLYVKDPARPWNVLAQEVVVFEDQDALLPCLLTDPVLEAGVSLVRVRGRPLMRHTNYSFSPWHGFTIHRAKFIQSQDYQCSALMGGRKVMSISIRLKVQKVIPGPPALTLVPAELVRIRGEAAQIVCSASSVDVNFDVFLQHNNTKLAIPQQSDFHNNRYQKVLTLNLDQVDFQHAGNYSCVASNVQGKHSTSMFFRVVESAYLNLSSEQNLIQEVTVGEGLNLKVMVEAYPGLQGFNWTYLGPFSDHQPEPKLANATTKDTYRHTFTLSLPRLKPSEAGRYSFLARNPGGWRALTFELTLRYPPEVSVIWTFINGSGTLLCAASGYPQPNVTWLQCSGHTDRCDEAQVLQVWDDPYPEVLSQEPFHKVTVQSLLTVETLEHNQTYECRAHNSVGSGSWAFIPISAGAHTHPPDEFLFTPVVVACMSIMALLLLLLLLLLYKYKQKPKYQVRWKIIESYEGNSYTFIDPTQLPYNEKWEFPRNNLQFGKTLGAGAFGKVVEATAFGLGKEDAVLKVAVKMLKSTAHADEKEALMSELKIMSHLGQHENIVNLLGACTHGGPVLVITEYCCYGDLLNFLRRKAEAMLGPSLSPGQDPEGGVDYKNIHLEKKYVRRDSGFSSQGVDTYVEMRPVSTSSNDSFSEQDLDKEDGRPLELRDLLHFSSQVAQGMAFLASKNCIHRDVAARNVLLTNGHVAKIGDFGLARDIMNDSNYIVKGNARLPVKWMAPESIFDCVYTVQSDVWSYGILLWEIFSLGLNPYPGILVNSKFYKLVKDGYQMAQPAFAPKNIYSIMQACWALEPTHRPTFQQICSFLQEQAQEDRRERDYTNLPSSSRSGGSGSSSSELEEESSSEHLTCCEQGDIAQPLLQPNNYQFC
A collection of molecules and their measured IC50

Solved entries:
[
  {
    "Compound Structure": "COc1ccc(CC(=O)Nc2ccc(-n3c4c(c5ncnc(N)c53)COC4)cc2OC)c(F)c1",
    "IC50": "10 to 200 nM"
  },
  {
    "Compound Structure": "COc1ccc(CC(=O)Nc2ccc(-n3c4c(c5ncnc(N)c53)COC4)cc2OC)cn1",
    "IC50": "10 to 200 nM"
  },
  {
    "Compound Structure": "Nc1ncnc2c3c(n(-c4ccc(NC(=O)Cc5cc(C(F)(F)F)ccc5F)c(F)c4)c12)COC3",
    "IC50": "10 to 200 nM"
  },
  {
    "Compound Structure": "COc1cccc(CC(=O)Nc2ccc(-n3c4c(c5ncnc(N)c53)CCC4)cc2)c1",
    "IC50": "< 10 nM"
  }
]

Next up:
State recorded IC50 with UniProtKB P07333, entry COc1cc(F)c(CC(=O)Nc2ccc(-n3c4c(c5ncnc(N)c53)CCC4)cc2)c(F)c1 , no comment.
< 10 nM
